- Tested on: CAL-51
- measurement conditions: 72 h
Simple rule here: EC50, CellTiter-Blue viability less than 500 nM is Met, otherwise Not met.

# compound, class assignment
records = [
    ("COc1ncc(-c2ccc3nccc(-c4ccnnc4)c3c2)cc1NS(=O)(=O)c1ccc(F)cc1F", "Met"),
    ("COC1=C2C[C@@H](C)C[C@H](OC)[C@H](O)[C@@H](C)/C=C(\\C)[C@H](OC(N)=O)[C@@H](OC)/C=C\\C=C(/C)C(=O)NC(=CC1=O)C2=O [Geldanamycin]", "Not met"),
    ("Cn1c(=O)c(F)c(Nc2ccc(I)cc2F)c2c(=O)n(C[C@@H](O)CO)cnc21 [TAK-733]", "Met"),
    ("COc1cccc2c1C(=O)c1c(O)c3c(c(O)c1C2=O)C[C@@](O)(C(C)=O)C[C@@H]3O[C@H]1C[C@H](N)[C@H](O)[C@H](C)O1 [Daunorubicin]", "Met"),
    ("C#Cc1cccc(Nc2ncnc3cc(OC)c(OCCCCCCC(=O)NO)cc23)c1 [CUDC-101]", "Not met"),
    ("O=c1[nH]c(=O)n([C@H]2C[C@H](O)[C@@H](CO)O2)cc1F [Floxuridine]", "Met"),
    ("CCS(=O)(=O)c1cccc(-c2cc(C(=O)NC3CCN(C)CC3)c(C)c3[nH]c4ncc(C)cc4c23)c1 [TAK-901]", "Met"),
    ("C[C@@]1(C(=O)Nc2ccc(F)nc2)CCCN1c1nc(Nc2cc(C3CC3)n[nH]2)c2cccn2n1", "Not met"),
]

====

- Tested on: BT-474
- method description: normalised response (% of control), CellTox Green; higher = less cell death (100 = DMSO, 0 = benzethonium chloride kill control)
- measurement conditions: incubation time: 72 h
value kind: normalised response (%)

# molecule, value kind, recorded number
rows = [
    ("COC(=O)C[C@](O)(CCCC(C)(C)O)C(=O)O[C@@H]1C(OC)=C[C@]23CCCN2CCc2cc4c(cc2[C@H]13)OCO4 [Omacetaxine] (10000 nM)", "normalised response", 75.2),
    ("FC(F)c1nc2ccccc2n1-c1nc(N2CCOCC2)nc(N2CCOCC2)n1 [ZSTK474] (10000 nM)", "normalised response", 86.6),
    ("COC1=C2C[C@@H](C)C[C@H](OC)[C@H](O)[C@@H](C)/C=C(\\C)[C@H](OC(N)=O)[C@@H](OC)/C=C\\C=C(/C)C(=O)NC(=CC1=O)C2=O [Geldanamycin] (100 nM)", "normalised response", 100),
    ("C[C@@H]1CCN(C(=O)CC#N)C[C@@H]1N(C)c1ncnc2[nH]ccc12 [Tofacitinib] (5000 nM)", "normalised response", 102),
    ("Cn1cnc2c(F)c(Nc3ccc(Br)cc3F)c(C(=O)NOCCO)cc21 [MEK-162] (100 nM)", "normalised response", 101),
    ("COc1cccc2c1C(=O)c1c(O)c3c(c(O)c1C2=O)C[C@@](O)(C(C)=O)C[C@@H]3O[C@H]1C[C@H](N)[C@H](O)[C@H](C)O1 [Daunorubicin] (10 nM)", "normalised response", 102),
]

====

- Test system: BT-549
- method description: drug sensitivity score (DSS), CellTiter-Blue viability (DSS (AUC-based score)); higher = stronger viability inhibition; extreme values may be limits of the assay
- measurement conditions: incubation time: 72 h
Examples of compounds with documented drug sensitivity score follow.

# compound, drug sensitivity score
data = [
    ("Cn1c(=O)c(F)c(Nc2ccc(I)cc2F)c2c(=O)n(C[C@@H](O)CO)cnc21 [TAK-733]", 0),
    ("O=c1[nH]c(=O)n([C@H]2C[C@H](O)[C@@H](CO)O2)cc1F [Floxuridine]", 6.97),
    ("CN1CCN(c2ccc3nc(-c4c(N)c5c(F)cccc5[nH]c4=O)[nH]c3c2)CC1 [Dovitinib]", 0),
    ("CCCC(CCC)C(=O)O [Valproic acid]", 0),
    ("CCOc1cc2ncc(C#N)c(Nc3ccc(OCc4ccccn4)c(Cl)c3)c2cc1NC(=O)/C=C/CN(C)C [Neratinib]", 0),
    ("CC(C)C[C@H](NC(=O)[C@H](Cc1ccccc1)NC(=O)c1cnccn1)B(O)O [Bortezomib]", 24.3),
    ("COC1=C2C[C@@H](C)C[C@H](OC)[C@H](O)[C@@H](C)/C=C(\\C)[C@H](OC(N)=O)[C@@H](OC)/C=C\\C=C(/C)C(=O)NC(=CC1=O)C2=O [Geldanamycin]", 23.4),
    ("COC(=O)C[C@](O)(CCCC(C)(C)O)C(=O)O[C@@H]1C(OC)=C[C@]23CCCN2CCc2cc4c(cc2[C@H]13)OCO4 [Omacetaxine]", 28.3),
    ("O=P(O)(NCCCl)NCCCl [Ifosfamide mustard]", 0),
]
